Tested target: T1, EsCas13d, nuclease-dead (Eubacterium siraeum, UniProt B0MS50, R295A;H300A;R849A;H854A)
T1 sequence: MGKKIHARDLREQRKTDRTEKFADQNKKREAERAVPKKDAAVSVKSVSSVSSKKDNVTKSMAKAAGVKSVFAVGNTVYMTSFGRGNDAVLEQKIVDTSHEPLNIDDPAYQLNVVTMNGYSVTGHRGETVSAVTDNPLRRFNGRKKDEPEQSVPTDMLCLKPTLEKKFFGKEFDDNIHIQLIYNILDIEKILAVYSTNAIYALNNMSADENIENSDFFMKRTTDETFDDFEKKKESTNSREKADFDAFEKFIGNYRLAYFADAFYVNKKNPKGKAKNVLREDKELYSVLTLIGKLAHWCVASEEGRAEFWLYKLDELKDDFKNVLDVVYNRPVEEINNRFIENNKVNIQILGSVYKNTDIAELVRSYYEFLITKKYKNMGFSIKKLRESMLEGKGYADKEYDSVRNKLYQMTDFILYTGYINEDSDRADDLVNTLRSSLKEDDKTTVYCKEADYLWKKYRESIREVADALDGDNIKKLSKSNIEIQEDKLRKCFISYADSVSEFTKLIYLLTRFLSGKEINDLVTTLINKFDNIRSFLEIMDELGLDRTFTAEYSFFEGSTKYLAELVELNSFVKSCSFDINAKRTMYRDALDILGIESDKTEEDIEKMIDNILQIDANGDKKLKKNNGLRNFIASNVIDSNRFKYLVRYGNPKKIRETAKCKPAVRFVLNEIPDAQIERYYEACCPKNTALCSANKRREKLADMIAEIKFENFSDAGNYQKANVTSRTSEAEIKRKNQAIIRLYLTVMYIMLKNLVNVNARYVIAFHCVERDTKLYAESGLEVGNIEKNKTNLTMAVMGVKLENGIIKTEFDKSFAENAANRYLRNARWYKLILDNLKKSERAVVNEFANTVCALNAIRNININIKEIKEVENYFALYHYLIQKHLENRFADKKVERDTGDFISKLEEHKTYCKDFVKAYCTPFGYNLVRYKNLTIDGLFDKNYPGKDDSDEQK
Assay details: crRNA (strand 1, pre-loaded); Mg2+; 40 mM Tris-HCl pH 7.5, 150 mM NaCl, 6 mM MgCl2, 1 mM DTT, 0.1% Tween-20, 0.2 mg/ml BSA; 25 C; 10 min per concentration, then washed
Condition details: tags: His6-TwinStrep-SUMO cleaved; N-terminal SNAP kept (SNAP-Surface 488); label: 3' end held by stalled T7 RNA polymerase
pKd: −log10 of the molar value.
Readout label: pKd

>  <Binder>
target 2 MT 5'PFS CAG 3'PFS CAC (mixed) RNA 1: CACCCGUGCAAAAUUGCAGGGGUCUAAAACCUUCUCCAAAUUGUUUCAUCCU RNA 2: GGGAAUGGAUCCACAUCUACGAAUUCCAGAGGAUGAAACAAUUUGGAGAAGCACAGAUCGGAAGAGCACACGU

>  <Readout label>
pKd

>  <Result value>
8.25

$$$$
